# assaySystem: UniProtKB P00746
pIC50: −log10 of the molar value.
Measured pIC50 of individual entries

Use these answered entries as a reference point.
{"compound": "Cc1cc2c(N)ncnc2n1CC(=O)N1[C@@H]2C[C@@H]2C[C@H]1C(=O)Nc1cccc(Br)n1 [Compound 158e]", "pIC50": "6.00 to 7.00"}
{"compound": "C[C@@]12C[C@@H](C(=O)Nc3cccc(Br)n3)N(C(=O)Cc3ccc4c(N)ncnn34)[C@@H]1C2 [Compound 71a]", "pIC50": "6.00 to 7.00"}
{"compound": "COc1cc2c(cc1F)c1c(N)ncnc1n2CC(=O)N1[C@H](C(=O)Nc2cccc(Br)n2)C[C@@]2(C)C[C@@H]12 [Compound 388a]", "pIC50": "> 7.00"}

q: Find the measured pIC50 of CNC(=O)c1ccc2c(c1)c1c(N)ncnc1n2CC(=O)N1[C@@H]2C[C@@H]2C[C@H]1C(=O)Nc1cccc(Br)n1 [Compound 204a] and report it.
a: > 7.00

----------
Values of IC50 reported for Factor D (Homo sapiens, UniProt P00746) appear below.

Use these answered entries as a reference point.
{"molecule": "Cc1cc(C(F)(F)F)cc2c3c(N)ncnc3n(CC(=O)N3C[C@H](F)C[C@H]3C(=O)Nc3cncc(Br)n3)c12 [Compound 321d]", "assaySystem": "Factor D (Homo sapiens, UniProt P00746)", "IC50": "< 100 nM"}
{"molecule": "Nc1ncnc2c1c1ccccc1n2CC(=O)N1CCC[C@H]1C(=O)Nc1cccc(Br)n1 [Compound 13b]", "assaySystem": "Factor D (Homo sapiens, UniProt P00746)", "IC50": "100 to 1000 nM"}
{"molecule": "Nc1ncnc2c1ncn2CC(=O)N1[C@@H]2C[C@@H]2C[C@H]1C(=O)Nc1cccc(Br)n1 [Compound 84a]", "assaySystem": "Factor D (Homo sapiens, UniProt P00746)", "IC50": "100 to 1000 nM"}
{"molecule": "Cc1cc(F)c(Br)nc1NC(=O)[C@@H]1C[C@H]2C[C@H]2N1C(=O)Cn1c2ncnc(N)c2c2cc(C(F)(F)F)cc(C)c21 [Compound 322c]", "assaySystem": "Factor D (Homo sapiens, UniProt P00746)", "IC50": "< 100 nM"}
{"molecule": "Cc1ccc(Br)nc1NC(=O)[C@@H]1C[C@@](C)(F)CN1C(=O)Cn1c2ccc(C(F)(F)F)cc2c2c(N)ncnc21 [Compound 209b]", "assaySystem": "Factor D (Homo sapiens, UniProt P00746)", "IC50": "< 100 nM"}
{"molecule": "C[C@@]12C[C@@H](C(=O)Nc3cccc(Br)n3)N(C(=O)Cn3c4ccncc4c4c(N)ncnc43)[C@@H]1C2 [Compound 181a]", "assaySystem": "Factor D (Homo sapiens, UniProt P00746)", "IC50": "< 100 nM"}
{"molecule": "Cc1ncc(-c2cc(C)c3c(c2)c2c(N)ncnc2n3CC(=O)N2C[C@](C)(F)C[C@H]2C(=O)Nc2cccc(Br)n2)cn1 [Compound 316a]", "assaySystem": "Factor D (Homo sapiens, UniProt P00746)", "IC50": "< 100 nM"}
{"molecule": "Nc1ncnc2c1c1cccc(-c3ccccc3)c1n2CC(=O)N1[C@@H]2C[C@@H]2C[C@H]1C(=O)Nc1cccc(Br)n1 [Compound 244d]", "assaySystem": "Factor D (Homo sapiens, UniProt P00746)", "IC50": "< 100 nM"}

q: Specify the recorded IC50 for Cc1cc(-c2ccnc(C(F)(F)F)c2)cc2c3c(N)ncnc3n(CC(=O)N3[C@H](C(=O)Nc4cccc(Br)n4)C[C@@]4(C)C[C@@H]34)c12 [Compound 355a] , system: Factor D (Homo sapiens, UniProt P00746).
Sequence (P00746 26-253): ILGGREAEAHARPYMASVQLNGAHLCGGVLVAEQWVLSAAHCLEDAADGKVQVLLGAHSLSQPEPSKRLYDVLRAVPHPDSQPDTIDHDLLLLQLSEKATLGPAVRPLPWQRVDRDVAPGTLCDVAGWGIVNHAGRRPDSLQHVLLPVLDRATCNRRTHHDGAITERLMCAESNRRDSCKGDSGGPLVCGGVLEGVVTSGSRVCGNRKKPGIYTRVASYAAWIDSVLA
a: < 100 nM

q: Specify the recorded IC50 for Cc1nc2c(N)ncnc2n1CC(=O)N1C[C@H](F)C[C@H]1C(=O)NCc1cccc(Cl)c1F [Compound 152d] , system: Factor D (Homo sapiens, UniProt P00746).
a: 100 to 1000 nM

q: Specify the recorded IC50 for Cc1cccc2c1c1c(N)ncnc1n2CC(=O)N1[C@H](C(=O)Nc2cccc(Br)n2)C[C@@]2(C)C[C@@H]12 [Compound 176a] , system: Factor D (Homo sapiens, UniProt P00746).
a: 100 to 1000 nM

q: Specify the recorded IC50 for Nc1ncnc2c(CC(=O)N3C[C@H](F)C[C@H]3C(=O)NCc3cccc(Cl)c3F)cccc12 [Compound 138d] , system: Factor D (Homo sapiens, UniProt P00746).
a: 100 to 1000 nM

q: Specify the recorded IC50 for Cc1cc(C(F)(F)F)cc2c3c(N)ncnc3n(CC(=O)N3C[C@](C)(F)C[C@H]3C(=O)Nc3cncc(Br)n3)c12 [Compound 305a] , system: Factor D (Homo sapiens, UniProt P00746).
a: < 100 nM

----------
Values of IC50 reported for Factor D (Homo sapiens, UniProt P00746) appear below.

{"molecule": "Nc1ncnc2c1ncn2CC(=O)N1[C@@H]2C[C@@H]2C[C@H]1C(=O)NCC1CC1(Cl)Cl (stereo partly shown) [Compound 103b]", "reported": "100 to 1000 nM"}
{"molecule": "COCc1ccc2c(c1)c1c(N)ncnc1n2CC(=O)N1[C@H](C(=O)Nc2cccc(Br)n2)C[C@@]2(C)C[C@@H]12 [Compound 340a]", "reported": "< 100 nM"}
{"molecule": "Nc1ncnc2c1c1cc(Br)ccc1n2CC(=O)N1[C@@H]2C[C@@H]2C[C@H]1C(=O)Nc1cccc(Br)n1 [Compound 34e]", "reported": "< 100 nM"}

q: Specify the recorded IC50 for Nc1ncnc2c1c1cc(C(=O)NCC3CC3)ccc1n2CC(=O)N1[C@@H]2C[C@@H]2C[C@H]1C(=O)Nc1cccc(Br)n1 [Compound 169f] , system: Factor D (Homo sapiens, UniProt P00746).
a: < 100 nM

q: Specify the recorded IC50 for Nc1ncnc2c1ncn2CC(=O)N1CCC[C@H]1C(=O)NCc1cccc(Cl)c1F [Compound 119a] , system: Factor D (Homo sapiens, UniProt P00746).
a: 100 to 1000 nM

q: Specify the recorded IC50 for Cc1nc(C(F)(F)F)cc2c3c(N)ncnc3n(CC(=O)N3[C@H](C(=O)Nc4cncc(Br)n4)C[C@@]4(C)C[C@@H]34)c12 [Compound 350a] , system: Factor D (Homo sapiens, UniProt P00746).
a: < 100 nM

q: Specify the recorded IC50 for Cc1cc(C)c2c(c1)c1c(N)ncnc1n2CC(=O)N1[C@H](C(=O)Nc2cncc(Br)n2)C[C@@]2(C)C[C@@H]12 [Compound 314a] , system: Factor D (Homo sapiens, UniProt P00746).
a: < 100 nM

----------
Measured pIC50 of individual entries
# assaySystem: Factor D (Homo sapiens)
pIC50: −log10 of the molar value.

Use these answered entries as a reference point.
{"compound": "Nc1nc(Cl)nc2c1ccn2CC(=O)N1[C@@H]2C[C@@H]2C[C@H]1C(=O)Nc1cccc(Br)n1 [Compound 90d]", "observable": "pIC50", "reported": "< 6.00"}
{"compound": "Nc1c(CO)cnc2c1ccn2CC(=O)N1[C@@H]2C[C@@H]2C[C@H]1C(=O)Nc1cccc(Br)n1 [Compound 157a]", "observable": "pIC50", "reported": "6.00 to 7.00"}
{"compound": "Nc1ncnc2c1c1cc(-c3ccc(F)cc3)ccc1n2CC(=O)N1[C@@H]2C[C@@H]2C[C@H]1C(=O)Nc1cccc(Br)n1 [Compound 335c]", "observable": "pIC50", "reported": "> 7.00"}
{"compound": "Cc1ccc(Br)nc1NC(=O)[C@@H]1C[C@@H](F)CN1C(=O)Cn1c2ccccc2c2c(N)ncnc21 [Compound 3b]", "observable": "pIC50", "reported": "> 7.00"}
{"compound": "Cc1cc(F)c(Br)nc1NC(=O)[C@@H]1C[C@@H](F)CN1C(=O)Cn1c2ncnc(N)c2c2cc(C(F)(F)F)cc(C)c21 [Compound 366c]", "observable": "pIC50", "reported": "> 7.00"}
{"compound": "COc1ccc2c3c(N)ncnc3n(CC(=O)N3[C@@H]4C[C@@H]4C[C@H]3C(=O)Nc3cccc(Br)n3)c2c1 [Compound 36e]", "observable": "pIC50", "reported": "> 7.00"}

q: Find the measured pIC50 of CNc1ncnc2c1cnn2CC(=O)N1CCC[C@H]1C(=O)Nc1cccc(Br)n1 [Compound 75d] and report it.
a: < 6.00

----------
Measured pIC50 of individual entries
# assaySystem: Factor D (Homo sapiens)
# protocolDescription: Factor D esterolytic assay (Z-Lys-SBzl thioester substrate, DTNB, 405 nm)
# Assay type: biochemical
# protocolConditions: substrate Z-Lys-SBzl 1.29 mM, 100 mM HEPES, 500 mM NaCl, pH 7.5, 10% DMSO, tested a minimum of three times
pIC50: −log10 of the molar value.

{"compound": "Nc1ncnc2c1ncn2CC(=O)N1[C@H](C(=O)NCc2cccc(Cl)c2F)C[C@@H]2C[C@@H]21 [Compound 109e]", "pIC50": "6.00 to 7.00"}
{"compound": "Nc1ncnc2c1c1cc(C(F)(F)F)ccc1n2CC(=O)N1[C@@H]2C[C@@H]2C[C@H]1C(=O)Nc1cccc(Cl)n1 [Compound 267c]", "pIC50": "> 7.00"}
{"compound": "Nc1ncnc2c1c1cc(F)c(F)cc1n2CC(=O)N1[C@@H]2C[C@@H]2C[C@H]1C(=O)Nc1cccc(Br)n1 [Compound 386g]", "pIC50": "> 7.00"}
{"compound": "CN(C)c1nc(N)c2ncn(CC(=O)N3[C@@H]4C[C@@H]4C[C@H]3C(=O)NCc3cccc(Cl)c3F)c2n1 [Compound 96e]", "pIC50": "< 6.00"}
{"compound": "COc1cccc2c1c1c(N)ncnc1n2CC(=O)N1[C@@H]2C[C@@H]2C[C@H]1C(=O)Nc1cccc(Br)n1 [Compound 57g]", "pIC50": "> 7.00"}
{"compound": "O=C(O)c1cnc2c(ccn2CC(=O)N2[C@@H]3C[C@@H]3C[C@H]2C(=O)Nc2cccc(Br)n2)c1 [Compound 128a]", "pIC50": "< 6.00"}

q: Find the measured pIC50 of CC(=O)Nc1ccc2c(c1)c1c(N)ncnc1n2CC(=O)N1[C@H](C(=O)Nc2cccc(Br)n2)C[C@@]2(C)C[C@@H]12 [Compound 185a] and report it.
a: > 7.00
